STUDY SYSTEM: T1, PDZD7_3, Q9H5P4
T1 sequence (Q9H5P4 857-944, limits assumed, looked up): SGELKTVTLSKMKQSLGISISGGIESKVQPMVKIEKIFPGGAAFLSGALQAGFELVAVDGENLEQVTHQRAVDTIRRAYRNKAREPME
EXPERIMENT SUMMARY: holdup assay
Design: key: below the threshold = too weak to quantify, mostly under pKd 3.1 to 4
REPORTED CONDITIONS: plain residues with an end cap or a label only (N-terminal biotin on a linker: ado-ado)
OBSERVED PROPERTY: pKd

Known pKd results, listed for orientation:
# BINDER, OBSERVED PROPERTY, REPORTED RESULT
measured = [
    ("DFKHTKSFII [JAM2, P57087]", "pKd", "below the threshold"),
    ("SQPLLVHDDV [KIT, P10721]", "pKd", "below the threshold"),
    ("FLVTEFNVML [DFNB31, Q9P202]", "pKd", 4.47),
    ("PAALPESTHM [SLC9A3, P48764]", "pKd", "below the threshold"),
]

Task: Value lookup for pKd; key = PSVYSRSQYV [CLDN8, P56748]
Result: below the threshold

Task: Now consider DSEEELPTRL [GRK6, P43250] .
Result: 4.18

Task: Now consider SGDGKTSVWI [GJC1, P36383] .
Result: below the threshold

Task: Now consider GVHSNDHSVV [LPAR1, Q92633] .
Result: 3.68

Task: Now consider PLATCDETSI [SEMA4F, O95754] .
Result: 4.43

Task: Now consider KSRPENGTVC [TMEM178B, H3BS89] .
Result: below the threshold
